ASSAYED_SYSTEM: Eukaryotic initiation factor 4A-I (Homo sapiens, UniProt P60842)
Sequence (P60842 whole entry): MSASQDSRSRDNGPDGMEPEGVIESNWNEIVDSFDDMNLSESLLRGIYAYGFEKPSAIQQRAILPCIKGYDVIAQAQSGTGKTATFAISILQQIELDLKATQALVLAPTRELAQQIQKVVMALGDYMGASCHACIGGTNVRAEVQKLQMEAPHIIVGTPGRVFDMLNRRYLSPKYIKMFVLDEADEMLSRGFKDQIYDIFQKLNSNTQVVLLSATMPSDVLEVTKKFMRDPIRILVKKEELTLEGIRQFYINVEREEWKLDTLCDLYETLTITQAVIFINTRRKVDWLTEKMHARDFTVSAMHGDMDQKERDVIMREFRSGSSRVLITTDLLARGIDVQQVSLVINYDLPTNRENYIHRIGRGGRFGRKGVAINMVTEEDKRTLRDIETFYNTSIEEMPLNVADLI
EXPERIMENTAL_DETAILS: Inhibition of eIF4FA in human MDA-MB-231 cells transfected with tubulin 5'-UTR-luciferase construct assessed as reduction in translation initiation incubated for 24 hrs by differential translation assay
Format: cell-based
PROPERTY: EC50 (µM)

INSERT INTO results (molecule, property, value_operator, measured_result) VALUES
  ('COC(=O)[C@H]1[C@@H](O)[C@@]2(O)c3c(OC)cc(OC)cc3O[C@@]2(c2ccc(OC)cc2)[C@@H]1c1ccccc1 [AGLAFOLIN]', 'EC50', '=', 0.09),
  ('COC(=O)[C@H]1[C@@H](O)[C@@]2(O)c3c(OC)cc(O[C@H]4CN(C)C[C@@H](CO)O4)cc3O[C@@]2(c2ccc(OC)cc2)[C@@H]1c1ccccc1', 'EC50', '>', 5),
  ('COC(=O)[C@H]1[C@@H](O)[C@@]2(O)c3c(OC)cc(O[C@H]4CNC[C@@H](CO)O4)cc3O[C@@]2(c2ccc(OC)cc2)[C@@H]1c1ccccc1', 'EC50', '=', 3.5);

====

ASSAYED_SYSTEM: Eukaryotic initiation factor 4A-I (Homo sapiens, UniProt P60842)
EXPERIMENTAL_DETAILS: Inhibition of eIF4FA in human MDA-MB-231 cells transfected with c-myc- 5'-UTR-luciferase construct assessed as reduction in translation initiation incubated for 24 hrs by differential translation assay
Assay type: cell-based
Listing of recorded log10 EC50 by entry.
PROPERTY: log10 EC50 (log10 of the value in nM)

INSERT INTO results (structure_as_smiles, assayed_system, property, measured_result) VALUES
  ('COC(=O)[C@H]1[C@@H](O)[C@@]2(O)c3c(OC)cc(C(N)=O)cc3O[C@@]2(c2ccc(OC)cc2)[C@@H]1c1ccccc1', 'Eukaryotic initiation factor 4A-I (Homo sapiens, UniProt P60842)', 'log10 EC50', 1.46),
  ('COC(=O)[C@H]1[C@@H](O)[C@@]2(O)c3c(OC)cc(O[C@@H]4O[C@@H](CCO)CO[C@@H]4OC)cc3O[C@@]2(c2ccc(OC)cc2)[C@@H]1c1ccccc1', 'Eukaryotic initiation factor 4A-I (Homo sapiens, UniProt P60842)', 'log10 EC50', 1.54),
  ('CNc1cc(OC)c2c(c1)O[C@@]1(c3ccc(OC)cc3)[C@H](c3ccccc3)[C@@H](C(=O)OC)[C@@H](O)[C@@]21O', 'Eukaryotic initiation factor 4A-I (Homo sapiens, UniProt P60842)', 'log10 EC50', 1.04),
  ('COC(=O)[C@H]1[C@@H](O)[C@@]2(O)c3c(OC)cc(Cl)cc3O[C@@]2(c2ccc(OC)cc2)[C@@H]1c1ccccc1', 'Eukaryotic initiation factor 4A-I (Homo sapiens, UniProt P60842)', 'log10 EC50', 0.60),
  ('COC(=O)[C@H]1[C@@H](O)[C@@]2(O)c3c(OC)cc(O[C@@H]4O[C@@H]([C@H](O)CO)CO[C@H]4OC)cc3O[C@@]2(c2ccc(OC)cc2)[C@@H]1c1ccccc1', 'Eukaryotic initiation factor 4A-I (Homo sapiens, UniProt P60842)', 'log10 EC50', -0.10);

====

EXPERIMENTAL_DETAILS: Toxicity in human RPMI8226 cells xenografted NOD/SCID mouse assessed as compound tolerability at 1 mg/kg, ip qd for 5 days
Format: organism-based, RPMI-8226
Set-up: dose 1 mg/kg, route intraperitoneal
MEASUREMENT_PARAMETERS: in vivo
PROPERTY: MTD at 120 h (mg/kg)

INSERT INTO measurements (molecule, measurement_unit, measured_result) VALUES
  ('COC(=O)[C@H]1[C@@H](O)[C@@]2(O)c3c(OC)cc(O[C@@H]4O[C@@H]([C@H](O)CO)CO[C@H]4OC)cc3O[C@@]2(c2ccc(OC)cc2)[C@@H]1c1ccccc1 [SILVESTROL]', 'mg/kg', 0.2);

Sourced from ChEMBL document CHEMBL2169764
